- System: TK-10
- TEST_METHOD_NOTES: NCI tumour cell line growth inhibition, 48 h
Activity calls are given as the source filed them. Rule as the data show it: active = GI50 up to about 1.1 µM and inactive = higher.
MEASURE: GI50

Q) Consider the compound N#Cc1c(O)c(/N=N/c2ccc(Cl)cc2)c(=O)n2c1[nH]c1ccccc12 . State its measured GI50.
A) 54 µM (inactive)

Q) Consider the compound O=C(Nc1ccccc1)c1cc(S(=O)(=O)Nc2n[nH]c(=O)[nH]2)c(SSc2cc(Cl)c(C(=O)Nc3ccccc3)cc2S(=O)(=O)Nc2n[nH]c(=O)[nH]2)cc1Cl . State its measured GI50.
A) > 100 µM (inactive)

Q) Consider the compound CCCCOc1ccc(S(=O)(=O)/N=C(\NN)Nc2ccc(Cl)cc2)cc1 . State its measured GI50.
A) 43.5 µM (inactive)

Q) Consider the compound COC(=O)/C(=N\N)C(C(=O)C(=O)Nc1nnc(S)[nH]1)c1nc2ccc([N+](=O)[O-])cc2nc1O (centres undefined) . State its measured GI50.
A) > 100 µM (inactive)

Q) Consider the compound CC(=O)OC1CC2C(C)(C)C(=O)C=C[C@]2(C)C2CCC3(C)C(=CC(=O)C3c3ccoc3)[C@]12C (some centres undefined) . State its measured GI50.
A) 15.7 µM (inactive)

Q) Consider the compound NC(=O)c1cccc([N+](=O)[O-])c1 . State its measured GI50.
A) > 100 µM (inactive)

Q) Consider the compound CC1(c2ccc[n+](Cc3ccccc3)c2)OCCO1 . State its measured GI50.
A) > 100 µM (inactive)

Q) Consider the compound COc1cc(C)cc2c1c(=O)c1ccccc1n2C . State its measured GI50.
A) 56.4 µM (inactive)

Q) Consider the compound O=C1/C(=C/c2ccccc2)CCCC1CN1CCCCC1 (centres undefined) . State its measured GI50.
A) 2.59 µM (inactive)

Q) Consider the compound Cc1c(CCCl)c(=O)n2c([nH]c3ccccc32)c1C#N . State its measured GI50.
A) 2.54 µM (inactive)

Q) Consider the compound CCOC(=O)/C(C[C@H]1OC(C)(C)O[C@@H]1[C@H]1COC(C)(C)O1)=N/O . State its measured GI50.
A) > 100 µM (inactive)

Q) Consider the compound CC(O)=C1C(=O)CCC1=O . State its measured GI50.
A) > 100 µM (inactive)

Q) Consider the compound O=C(NC1CCC(=O)N1C(=O)OCc1ccccc1)OCc1ccccc1 (centres undefined) . State its measured GI50.
A) > 100 µM (inactive)

Q) Consider the compound C/C=C/[C@H]1O[C@@](O)([C@@H](C)[C@H](O)[C@H](C)[C@H]2OC(=O)/C(OC)=C/C(C)=C/[C@@H](C)[C@@H](O)[C@@H](CC)[C@@H](O)[C@H](C)C/C(C)=C/C=C/[C@@H]2OC)C[C@H](OC2CC(O)C(OC(N)=O)C(C)O2)[C@@H]1C (some centres undefined) . State its measured GI50.
A) 17.3 µM (inactive)

Q) Consider the compound C1CNCCNCCN1 . State its measured GI50.
A) > 100 µM (inactive)

Q) Consider the compound CCOc1cc(NC(C)=O)ccc1C(=O)NN1C(=O)C(Cl)C1c1ccccc1 (centres undefined) . State its measured GI50.
A) 16.6 µM (inactive)

###

Each entry below lists one item and its recorded GI50 value.
- Tested on: DMS-273
- TEST_METHOD_NOTES: NCI tumour cell line growth inhibition, 48 h
Active and inactive are the calls of the source. Cut-off read from the data, not from the text of the source: active = GI50 up to about 1.1 µM and inactive = higher.

Examples with answers:
[
  {
    "COMPOUND": "O=C1[C@H]2ON(c3ccccc3)C(c3ccc([N+](=O)[O-])cc3)[C@H]2C(=O)N1c1ccc(Cc2ccc(N3C(=O)[C@@H]4ON(c5ccccc5)C(c5ccc([N+](=O)[O-])cc5)[C@@H]4C3=O)cc2)cc1 (stereo partly drawn)",
    "GI50": "> 100 µM (inactive)"
  },
  {
    "COMPOUND": "N#CC(C(=O)/C(=N\\NC(N)=O)C(C#N)c1ccccc1)c1ccccc1 (stereo not drawn)",
    "GI50": "> 100 µM (inactive)"
  },
  {
    "COMPOUND": "CC(=O)OC1COC(N2C(=O)/C(=N\\NC(N)=S)c3cc(Br)ccc32)C(OC(C)=O)C1OC(C)=O (stereo not drawn)",
    "GI50": "38.5 µM (inactive)"
  }
]

Now for the compound whose GI50 we want.
Q) Consider the compound CCCCCCCCCCCCCCCCCCOCC(O)CO (stereo not drawn) . State its measured GI50.
A) > 5.93 µM (inactive)

###

Each entry below lists one item and its recorded GI50 value.
- Test system: IGROV-1
- TEST_METHOD_NOTES: NCI tumour cell line growth inhibition, 48 h
Activity calls are given as the source filed them. No stated cut-off is given here; in the data, active = GI50 up to about 1.1 µM and inactive = higher.

[
  {
    "COMPOUND": "N#Cc1ccc2cc3c(cc2c1)OCO3",
    "GI50": "> 100 µM (inactive)"
  },
  {
    "COMPOUND": "COC(=O)C(COC(=O)/C=C/c1ccc(OC(C)=O)c(OC(C)=O)c1)NC(=O)/C=C/c1ccc(OC(C)=O)c(OC(C)=O)c1 (centres undefined)",
    "GI50": "43.6 µM (inactive)"
  }
]

Q) Return reported GI50 for target or system IGROV-1, item O=C1CSC(c2cccc(Cl)c2)N1c1ccc(-n2c(-c3ccccc3)nc3ccccc3c2=O)cc1 (centres undefined) .
A) 59.2 µM (inactive)

Q) Return reported GI50 for target or system IGROV-1, item [O-][n+]1c2cc(CBr)c(CBr)cc2[n+]([O-])c2c(O)cccc21 .
A) 4.02 µM (inactive)

Q) Return reported GI50 for target or system IGROV-1, item COc1c(O)c(O)cc2c1-c1ccc(OC)c(=O)cc1C(NC(C)=O)CC2 (centres undefined) .
A) 5.26 µM (inactive)

Q) Return reported GI50 for target or system IGROV-1, item NN/C(=N\S(=O)(=O)c1cc2ccccc2o1)Nc1ccc(Cl)cc1 .
A) 53 µM (inactive)

Q) Return reported GI50 for target or system IGROV-1, item O=C(O)[C@@H]1C[C@@H](O)CN1C(=O)OCc1ccccc1 .
A) > 100 µM (inactive)

Q) Return reported GI50 for target or system IGROV-1, item COc1ccccc1/C=C(\NC(=O)c1ccccc1)c1nc2ccc(Cl)cc2[nH]1 .
A) 26.9 µM (inactive)

Q) Return reported GI50 for target or system IGROV-1, item CC(C)NCC(O)c1ccc(OCc2ccccc2)c(OCc2ccccc2)c1-c1ccccc1 (centres undefined) .
A) 1.41 µM (inactive)

Q) Return reported GI50 for target or system IGROV-1, item CC(C)=CCC/C(C)=C/CC/C(C)=C/CC/C(C)=C/CC/C(C)=C/CC/C(C)=C/CC/C(C)=C/CC/C(C)=C/CC/C(C)=C/CO [SOLANESOL] .
A) > 100 µM (inactive)

Q) Return reported GI50 for target or system IGROV-1, item COc1ccc(/C=C/C(=O)c2sc(-n3nc(-c4ccccc4)cc3-c3ccccc3)nc2C)cc1OC .
A) 24.3 µM (inactive)

Q) Return reported GI50 for target or system IGROV-1, item Oc1ccc2ccccc2c1/N=N/c1ccc(Cl)cc1 .
A) > 100 µM (inactive)

Q) Return reported GI50 for target or system IGROV-1, item NNc1nc2ccccc2c(=O)n1NC(=O)C(=O)Nc1cccc(C(F)(F)F)c1 .
A) 47.6 µM (inactive)

Q) Return reported GI50 for target or system IGROV-1, item O=C(Nc1cccc([N+](=O)[O-])c1)/C(=N\NC(=O)c1ccncc1)c1nc2ccc([N+](=O)[O-])cc2nc1O .
A) > 100 µM (inactive)

Q) Return reported GI50 for target or system IGROV-1, item CC(C)N(C(C)C)P(OCCC#N)OC1CC(n2cnc3c(=O)[nH]cnc32)OC1COC(=O)NCCCCCCNC(=O)OC(C)(C)c1ccc(-c2ccccc2)cc1 (centres undefined) .
A) 17 µM (inactive)

Q) Return reported GI50 for target or system IGROV-1, item COc1cc(/C=N\NC(=O)C[N+](C)(C)C)cc(OC)c1OC .
A) > 10 µM (inactive)

Q) Return reported GI50 for target or system IGROV-1, item CC1=C2C(=O)C(C)(C)C=C2C(=O)[C@](C)(O)C12CC2 [DEHYDROILLUDIN M] .
A) > 1 µM (active)

Q) Return reported GI50 for target or system IGROV-1, item CC1(c2ccc[n+](Cc3ccccc3)c2)OCCO1 .
A) > 100 µM (inactive)

Q) Return reported GI50 for target or system IGROV-1, item O=C(/C=C/c1ccc([N+](=O)[O-])cc1)c1nc2ccccc2[nH]1 .
A) 1.68 µM (inactive)

###

- Test system: DU-145
- TEST_METHOD_NOTES: NCI tumour cell line growth inhibition, 48 h
Active and inactive are the calls of the source. Rule as the data show it: active = GI50 up to about 1.1 µM and inactive = higher.
Lab note: assign the record to one of class 1 for active, class 0 for inactive

Observe how each entry below is paired with its result.
[
  {
    "COMPOUND": "COc1ccc(NC2CC(C)N(C(=O)c3ccccc3)O2)cc1 (stereo unspecified)",
    "TARGET_ENTITY": "DU-145",
    "CLASS_LABEL": "class 0"
  },
  {
    "COMPOUND": "CN(C)C(=O)C(F)(F)C(c1ccccc1)C1C(=O)N(C)C(=O)N(C)C1=O (stereo unspecified)",
    "TARGET_ENTITY": "DU-145",
    "CLASS_LABEL": "class 0"
  },
  {
    "COMPOUND": "CCC(=O)Oc1c2ccsc2c(OC(=O)CC)c2ccsc12",
    "TARGET_ENTITY": "DU-145",
    "CLASS_LABEL": "class 1"
  },
  {
    "COMPOUND": "CC(NC(=O)OC(C)(C)C)C(=O)C(N)=O (stereo unspecified)",
    "TARGET_ENTITY": "DU-145",
    "CLASS_LABEL": "class 0"
  }
]

Q) Could you check what this test reported for CSc1nc(C)c2c(n1)N(c1ccc(Cl)cc1)CC2 ?
A) class 0

Q) Could you check what this test reported for C[C@H](NC(=O)c1ccc(CNC(=O)/C=C/c2cccc(Oc3ccccc3)c2)cc1)c1ccccc1 ?
A) class 0
